// values below are pIC50; system is SARS-CoV-2 Main Protease (SARS-CoV-2) (UniProt P0DTD1)
Units for pIC50: none; it is -log10 of a concentration expressed in mol/L.

Below are worked cases with known answers.
                                   molecule  metric_name  measurement
0  C=CC(=O)N(c1ccc(C(F)(F)F)cc1)C(C(=O)NCCc1cccc(F)c1)c1cncc(C)c1 (stereo not drawn)        pIC50         4.61
1  Cc1ncc(CO)c(CNc2cc(Cl)cc(CC(=O)Nc3cncc4ccccc34)c2)c1O        pIC50         5.04
2  O=C(NCCc1cccc(F)c1)C(c1cccnc1)N(C(=O)c1cnc[nH]1)c1ccc(Cn2cccn2)cc1 (stereo not drawn)        pIC50         4.45
3  O=C(Cc1cc(Cl)cc(Nc2ccc(Cl)nc2Cl)c1)Nc1cncc2ccccc12        pIC50         5.64
4  COc1ccc(-c2ccsc2S(=O)(=O)N2CCN(C(=O)CCl)CC2)cc1        pIC50         5.98
5  Cc1cn(-c2cc(Nc3cc(Cl)cc(CC(=O)Nc4cncc5ccccc45)c3)cc(C(F)(F)F)c2)cn1        pIC50         5.60
6           N#Cc1cccc(NC(=O)Nc2cncc(N)c2)c1        pIC50         4.27
7  O=C(Cc1cc(Cl)cc(Nc2ccccc2Oc2ccccc2)c1)Nc1cncc2ccccc12        pIC50         5.66

# evaluate next
In: Notebook entry, SARS-CoV-2 Main Protease (SARS-CoV-2) (UniProt P0DTD1) assay: pIC50 of O=C(Cc1cccc(Cl)c1)Nc1nnn[nH]1 = ?
Out: 4.34

###

// values below are IC50; system is SARS-CoV-2 Main Protease (SARS-CoV-2)
Entry rule: numbers only, all in µM.

>>> print(df.to_string())
                                   compound  units  measurement
0  CC(C)(C)c1ccc(N(C(=O)c2cc(C3(O)COC3)on2)C(C(=O)NCCc2cccc(F)c2)c2cccnc2)cc1 (stereo not given)     µM         26.2
1  O=C(Nc1cncc2cc(CN3CCNCC3)ccc12)C1CCOc2ccc(Cl)cc21 (stereo not given)     µM         1.83
2          O=C(Cc1cccc(Cl)c1)Nn1nnc2ccccc21     µM          5.8
3       O=C(Cc1cccc(Cl)c1)Nc1cncc2[nH]ccc12     µM         6.19
4  Cc1cc(Nc2cc(Cl)cc(CC(=O)Nc3cncc4ccccc34)c2)cnc1Br     µM         1.95

In: Recorded IC50 for O=C(Nc1cncc2ccccc12)C1CCOc2c(OCc3ccccc3)cc(Cl)cc21 (stereo not given) , please?
Out: 36.5

In: Recorded IC50 for O=C(NCCc1cccc(F)c1)C(c1cccnc1)N(C(=O)c1cocn1)c1ccc(OC2CCOC2)cc1 (stereo not given) , please?
Out: 6.32

###

// values below are pIC50; system is SARS-CoV-2 Main Protease (SARS-CoV-2)
Units for pIC50: none; it is -log10 of a concentration expressed in mol/L.

Below are worked cases with known answers.
In [3]: df
Out[3]:
                                   compound                         assayed_target  measurement
0  CCn1c2ccccc2c2cc(Nc3cc(Cl)cc(CC(=O)Nc4cncc5ccccc45)c3)ccc21  SARS-CoV-2 Main Protease (SARS-CoV-2)         5.56
1  O=C(CN1CC(C(=O)Nc2cncc3ccccc23)c2cc(Cl)ccc2C1=O)NCC(F)(F)F (centres undefined)  SARS-CoV-2 Main Protease (SARS-CoV-2)         6.47
2  COc1ccc2cncc(N3CCC4(CN(S(=O)(=O)CC5(C#N)CC5)Cc5ccc(Cl)cc54)C3=O)c2c1 (centres undefined)  SARS-CoV-2 Main Protease (SARS-CoV-2)         6.67

In: Recorded pIC50 for CNC(=O)CN1CC(C)(C(=O)Nc2cncc3cc(Cl)ccc23)c2cc(Cl)ccc2S1(=O)=O (centres undefined) , please?
Out: 6.41

The values you see were collected from the COVID Moonshot data (paper PMC7615835).
